assay: qHTS assay to identify small molecule antagonists of the androgen receptor (AR) signaling pathway - cell viability counter screen (AID 743033; note: % is set by controls: 0 for no effect and ±100 for the full control effect; nearly all actives have a fitted effect of over 45% in size); conditions: AR-bla HEK293 viability, CellTiter-Glo luminescence, 16 h; series mostly up to 58.5 µM
Results filed as inconclusive are left out. Activity calls are given as the source filed them. Calls come from the whole dose curve; as a rule, active = well fitted cell-killing curve with a large enough effect in the repeat runs; inconclusive = weak or mixed curves; inactive = no such curve, though single readings can be large or run the other way.
quantityKind: outcome

Some solved entries appear below for comparison.
# outcome (molecule: CCOC(=O)c1ccc(C)cc1 ) is inactive

The molecule listed as Cn1cc(S(C)=O)c(=O)c2ccc(F)cc21 (configuration not stated) has a reported outcome of inactive

Record OCCOc1ccc(OCCO)cc1 , field outcome: inactive

Notebook: C[C@@H]1CCN(C(=O)[C@H](CCCN=C(N)N)NS(=O)(=O)c2cccc3c2NC[C@H](C)C3)[C@@H](C(=O)O)C1 , outcome read as inactive

Per the records, this molecule ( CCCN1CCCC[C@H]1C(=O)Nc1c(C)cccc1C ) has outcome equal to inactive

# molecule Cc1cccc(C)c1NC(=O)C(C)N (configuration not stated) ; its outcome = inactive

For this molecule ( NC(=O)COCCN1CCN(C(c2ccccc2)c2ccc(Cl)cc2)CC1 (configuration not stated) ), measured outcome is inactive

// recorded outcome for C[C@H](NC(CCc1ccccc1)C(=O)O)C(=O)N1CCC[C@H]1C(=O)O (some centres not stated) : inactive

Reported outcome for C=CCS(=O)(=O)O was inactive

Entry ClC(Cl)(Br)Br — recorded outcome = inactive

---
Short answer for CCC(C)C1CCCCC1=O (configuration not stated) : outcome was inactive

The molecule listed as CCCCCCCCCCCCCCCCC has a reported outcome of inactive

// sample Nc1ccc(S(=O)(=O)Nc2ccnn2-c2ccccc2)cc1 , its outcome was inactive

outcome reading for Cc1c(NC(C)C)c(=O)n(-c2ccccc2)n1C : inactive

The molecule C1OCOCO1 showed outcome equal to inactive

The recorded outcome for entry COC(=O)c1c(Cl)c(Cl)c(C(=O)OC)c(Cl)c1Cl equals inactive

Given item CCCCCSCCCCC , the value recorded as its outcome is inactive

Noted for COc1nc(N)nc2c1ncn2[C@@H]1O[C@H](CO)[C@@H](O)[C@@H]1O : its outcome reads inactive

Measured outcome of N=C(N)c1ccccc1 : inactive

----------
assay: qHTS assay to identify small molecule antagonists of the estrogen related receptor (ERR) signaling pathway from Tox21 library (AID 1224848); details: ERR reporter cell line, luciferase antagonist mode, 18 h; series mostly up to 92.4 µM; note: % is set by controls: 0 for no effect and ±100 for the full control effect; nearly all actives have a fitted effect of over 50% in size
Records with an inconclusive call do not appear. The source made the active and inactive calls. The call rests on the fitted dose curve; in most records, active means well fitted inhibition curve with a large enough effect in the repeat runs; inconclusive means weak or mixed curves; inactive means no such curve, though single readings can be large or run the other way.
quantityKind: activity, negative = inhibition

Reference set, count: 5
The recorded activity, negative = inhibition for COc1c(N2C[C@@H]3CCCN[C@@H]3C2)c(F)cc2c(=O)c(C(=O)O)cn(C3CC3)c12 is inactive

Record CCOC(=O)c1cccc(N)c1 . Reported activity, negative = inhibition: inactive

The recorded activity, negative = inhibition for entry CC(C)NC(=O)NC(C)C equals inactive

Measured activity, negative = inhibition, CCCCCCOC(=O)CCCCC(=O)OCCCCCC : inactive

// sample CN1C(=O)N(C)C(O)C1O (configuration not stated) , its activity, negative = inhibition was inactive

More entries:
So for CCOC(=O)C(=O)OCC , the logged activity, negative = inhibition turned out to be inactive

Recorded result, C[C@](N)(Cc1ccc(O)cc1)C(=O)O , activity, negative = inhibition: 3.87% [at 8.39 µM] (inactive)
